Experimental system: Histone-lysine N-methyltransferase 2A/WDR5 (Homo sapiens)
Assay comment: Inhibition of MLL1/WDR5 (unknown origin) protein-protein interaction incubated for 2 hrs by FP analysis
Assay type: protein assay
# reported pIC50; entries follow
Remember the convention: pIC50 equals -log10 of concentration in molar.

# example entries with known answers
1. Cc1c(F)c(N)cc(C(=O)Nc2cc(-c3ccc(C(=O)Nc4ccccc4N)cc3)ccc2N2CCN(C)CC2)c1Cl = 6.67
2. Cc1c(F)c(N)cc(C(=O)Nc2cc(-c3ccc(C(=O)NCCCCC(=O)NO)cc3)ccc2N2CCN(C)CC2)c1Cl = 7.40
3. Cc1c(F)c(N)cc(C(=O)Nc2cc(-c3ccc(NC(=O)CCCCCCCC(=O)NO)cc3)ccc2N2CCN(C)CC2)c1Cl = 6.64

Query string: Request body: readout pIC50, system Histone-lysine N-methyltransferase 2A/WDR5 (Homo sapiens), query Cc1c(F)c(N)cc(C(=O)Nc2cc(-c3ccc(NC(=O)c4ccc(/C=C/C(=O)NO)cc4)cc3)ccc2N2CCN(C)CC2)c1Cl . Return the value.
Result string: 6.36
